Known half-life of a selection of molecules
Assay: Half life in serum (unknown origin)
Type: ADME, cell-free

See these solved cases before continuing.
CC(C)(C)c1cc(OC(=O)c2ccc(Cl)cc2)ccc1O	< 0.25 h
CNc1cc(Cl)c(C(=O)Nc2ccc(O)c(C(C)(C)C)c2)c(Cl)c1	> 1 h
CC(C)(C)c1cc(OC(=O)Cc2ccccc2)ccc1O	< 0.25 h

## Input Indicate its recorded half-life; the molecule in question is `C=CCOc1ccc(NC(=O)c2ccc(Cl)cc2Cl)cc1C(C)(C)C`
## Output > 1 h

## Input Indicate its recorded half-life; the molecule in question is `CC(C)(C)c1cc(NC(=O)c2ccc(Cl)cc2Cl)cc(C(C)(C)C)c1O`
## Output > 1 h

## Input Indicate its recorded half-life; the molecule in question is `CC(C)(C)c1cc(OC(=O)c2c(Cl)cc(N)cc2Cl)ccc1O`
## Output < 0.25 h
